TARGET OR SYSTEM: human PDE9A2 (Homo sapiens, UniProt O76083)
Construct: made in house; host or cells: Sf9 insect cells (infected); crude lysate used as enzyme source
Sequence (O76083 1-533 isoform O76083-2): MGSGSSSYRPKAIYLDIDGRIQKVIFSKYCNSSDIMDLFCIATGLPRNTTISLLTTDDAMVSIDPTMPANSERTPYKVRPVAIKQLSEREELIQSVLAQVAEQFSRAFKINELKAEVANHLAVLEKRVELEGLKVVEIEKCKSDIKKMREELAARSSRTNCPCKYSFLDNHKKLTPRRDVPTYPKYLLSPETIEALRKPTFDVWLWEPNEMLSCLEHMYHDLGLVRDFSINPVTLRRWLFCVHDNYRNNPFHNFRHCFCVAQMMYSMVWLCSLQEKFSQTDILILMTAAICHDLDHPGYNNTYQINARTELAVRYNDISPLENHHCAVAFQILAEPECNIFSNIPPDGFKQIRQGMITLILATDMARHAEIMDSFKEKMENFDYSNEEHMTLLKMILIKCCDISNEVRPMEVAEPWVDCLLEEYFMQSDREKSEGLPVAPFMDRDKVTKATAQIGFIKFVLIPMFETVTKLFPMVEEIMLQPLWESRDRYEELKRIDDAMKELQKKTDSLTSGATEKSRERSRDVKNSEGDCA
ASSAY TEXT: PDE9A2 enzymatic activity assay (scintillation proximity assay, SPA)
Assay type: biochemical
CONDITION DETAILS: reported only as range 1-100 or 101-1200 nanomolar; specific value lies within range; read-out: IC50 within range [nanomolar (nM)]
VALUE KIND: IC50

Would you mind listing IC50 for each of the following compounds?
1. O=C(c1ccccc1)N1CCC(n2ncc3c(=O)[nH]c(CC4CCCC4)nc32)C1 (racemic) [Example 167]
2. O=c1[nH]c(Cc2ccccc2C(F)(F)F)nc2c1cnn2C1CCOC1 (racemic) [Example 86]
3. O=c1[nH]c(Cc2ccc(F)cc2)nc2c1cnn2C1CCCOC1 (racemic) [Example 101]
4. CC1CC(n2ncc3c(=O)[nH]c(CC4CCCC4)nc32)CCO1 (racemic) [Example 112]
5. O=c1[nH]c(C(F)c2ccccc2)nc2c1cnn2C1CCOCC1 (racemic) [Example 12]
6. O=c1[nH]c(CC2CCC2)nc2c1cnn2C1CCCNC1 (racemic) [Example 206]
7. CC(C)(C)OC(=O)N1CCCC(n2ncc3c(=O)[nH]c(Cc4cccc(C(F)(F)F)c4)nc32)C1 (racemic) [Example 22]
8. CCOc1ccccc1Cc1nc2c(cnn2C2CCOC(C)(C)C2)c(=O)[nH]1 (racemic) [Example 105]

1: 101 to 1200 nM; 2: 101 to 1200 nM; 3: 1 to 100 nM; 4: 1 to 100 nM; 5: 1 to 100 nM; 6: 101 to 1200 nM; 7: 1 to 100 nM; 8: 101 to 1200 nM

Would you mind listing IC50 for each of the following compounds?
1. CC(C)(C)OC(=O)N1CCC(n2ncc3c(=O)[nH]c(CC4CCC4)nc32)C1 (racemic) [Example 16]
2. O=c1[nH]c(Cn2cccn2)nc2c1cnn2C1CCOCC1 [Example 26]
3. O=c1[nH]c(Cc2ccccc2)nc2c1cnn2C1CCNC1 (racemic) [Example 199]
4. CN(C)C(=O)N1CCCC(n2ncc3c(=O)[nH]c(CC4CCCC4)nc32)C1 (racemic) [Example 160]
5. CCC(Cc1nc2c(cnn2C2CCOC2)c(=O)[nH]1)C(F)(F)F (mixture of isomers) [Example 77]
6. CC(=O)N1CCCC(n2ncc3c(=O)[nH]c(Cc4ccccc4F)nc32)C1 (racemic) [Example 187]

["101 to 1200 nM", "101 to 1200 nM", "101 to 1200 nM", "1 to 100 nM", "101 to 1200 nM", "1 to 100 nM"]

Would you mind listing IC50 for each of the following compounds?
1. CC(C)Oc1ccccc1Cc1nc2c(cnn2C2CCOCC2)c(=O)[nH]1 [Example 54]
2. O=c1[nH]c(CC2CCCC2)nc2c1cnn2C1CCCCO1 (racemic) [Example 147]
3. O=C(c1ccccc1)N1CCCC(n2ncc3c(=O)[nH]c(Cc4ccccn4)nc32)C1 (racemic) [Example 175]

["1 to 100 nM", "1 to 100 nM", "101 to 1200 nM"]

----------
TARGET OR SYSTEM: human PDE9A2 (Homo sapiens, UniProt O76083)
Construct: made in house; host or cells: Sf9 insect cells (infected); crude lysate used as enzyme source
ASSAY TEXT: PDE9A2 enzymatic activity assay (scintillation proximity assay, SPA)
Type: biochemical
CONDITION DETAILS: reported only as range 1-100 or 101-1200 nanomolar; specific value lies within range; read-out: IC50 within range [nanomolar (nM)]
VALUE KIND: IC50

Would you mind listing IC50 for each of the following compounds?
1. O=c1[nH]c(Cc2ccccc2OC(F)(F)F)nc2c1cnn2C1CCNC1 (racemic)
2. CCOc1ccccc1Cc1nc2c(cnn2C2CCCN(C(=O)OC(C)(C)C)C2)c(=O)[nH]1 (racemic)
3. CC(=O)N1CCC(n2ncc3c(=O)[nH]c(Cc4ccccc4)nc32)C1 (racemic)
4. CC(C)Cc1nc2c(cnn2C2CCCN(C(=O)OC(C)(C)C)C2)c(=O)[nH]1 (racemic)

["101 to 1200 nM", "1 to 100 nM", "1 to 100 nM", "1 to 100 nM"]

Would you mind listing IC50 for each of the following compounds?
1. COc1ccccc1CCc1nc2c(cnn2C2CCOCC2)c(=O)[nH]1
2. O=c1[nH]c(CC2CCCC2)nc2c1cnn2C1CCCNC1 (racemic)

["101 to 1200 nM", "101 to 1200 nM"]

----------
TARGET OR SYSTEM: human PDE9A2 (Homo sapiens)
Construct: made in house; host or cells: Sf9 insect cells (infected); crude lysate used as enzyme source
ASSAY TEXT: PDE9A2 enzymatic activity assay (scintillation proximity assay, SPA)
Type: biochemical
CONDITION DETAILS: reported only as range 1-100 or 101-1200 nanomolar; specific value lies within range; read-out: IC50 within range [nanomolar (nM)]
Kindly supply the reported IC50 values for the records listed here.

MOLECULE: CC1(C)CC(n2ncc3c(=O)[nH]c(CC4CCCC4)nc32)CCO1 (racemic) [Example 104]
TARGET OR SYSTEM: human PDE9A2 (Homo sapiens)
IC50: 101 to 1200 nM
--
MOLECULE: O=c1[nH]c(Cc2cccc(C(F)(F)F)c2)nc2c1cnn2C1CCCOC1 (racemic) [Example 129]
TARGET OR SYSTEM: human PDE9A2 (Homo sapiens)
IC50: 1 to 100 nM
--
MOLECULE: O=c1[nH]c(Cc2cccnc2)nc2c1cnn2C1CCOC1 (racemic) [Example 78]
TARGET OR SYSTEM: human PDE9A2 (Homo sapiens)
IC50: 101 to 1200 nM
--
MOLECULE: CC(C)(C)OC(=O)N1CCCC(n2ncc3c(=O)[nH]c(CC4CCC4)nc32)C1 (racemic) [Example 32]
TARGET OR SYSTEM: human PDE9A2 (Homo sapiens)
IC50: 1 to 100 nM
--
MOLECULE: CN1CCCC(n2ncc3c(=O)[nH]c(CC4CCC4)nc32)C1 (racemic) [Example 218]
TARGET OR SYSTEM: human PDE9A2 (Homo sapiens)
IC50: 101 to 1200 nM

Would you mind listing IC50 for each of the following molecules?
1. CC1CC(n2ncc3c(=O)[nH]c(Cc4ccccn4)nc32)CCO1 (racemic) [Example 118]
2. O=c1[nH]c(Cc2ccc(F)cc2Cl)nc2c1cnn2C1CCOCC1 [Example 10]
3. O=c1[nH]c(CC2CCC2)nc2c1cnn2C1CCOCC1 [Example 43]

1: 101 to 1200 nM; 2: 1 to 100 nM; 3: 1 to 100 nM

----------
TARGET OR SYSTEM: human PDE9A2 (Homo sapiens)
Construct: made in house; host or cells: Sf9 insect cells (infected); crude lysate used as enzyme source
ASSAY TEXT: PDE9A2 enzymatic activity assay (scintillation proximity assay, SPA)
Type: biochemical
CONDITION DETAILS: reported only as range 1-100 or 101-1200 nanomolar; specific value lies within range; read-out: IC50 within range [nanomolar (nM)]
VALUE KIND: IC50

Some compounds with known IC50 results, for comparison:
COMPOUND: O=c1[nH]c(Cc2ccccc2Cl)nc2c1cnn2C1CCOCC1
IC50: 1 to 100 nM
//
COMPOUND: O=c1[nH]c(CC2CCCC2)nc2c1cnn2C1CCCN(CC(F)(F)F)C1 (racemic)
IC50: 101 to 1200 nM
//
COMPOUND: CC(=O)N1CCC(n2ncc3c(=O)[nH]c(CC4CCCC4)nc32)CC1
IC50: 101 to 1200 nM
//
COMPOUND: O=c1[nH]c(Cc2cc(Cl)cc(Cl)c2)nc2c1cnn2C1CCOCC1
IC50: 1 to 100 nM
//
COMPOUND: O=c1[nH]c(Cc2ccccc2OC2CCOCC2)nc2c1cnn2C1CCOCC1
IC50: 1 to 100 nM

Would you mind listing IC50 for each of the following compounds?
1. O=c1[nH]c(CC2CCCCC2)nc2c1cnn2C1CCCOC1 (racemic)
2. CC1CC(n2ncc3c(=O)[nH]c(CC4CCCC4)nc32)CCO1 (racemic) [Example 117]
3. CCC(CC)Cc1nc2c(cnn2C2CCOC2)c(=O)[nH]1 (racemic)
4. CC1COCCC1n1ncc2c(=O)[nH]c(CC3CCCC3)nc21 (racemic) [Example 132-5]
5. CN1CCCC(n2ncc3c(=O)[nH]c(Cc4ccccc4)nc32)C1 (racemic)
6. COc1ccccc1Cc1nc2c(cnn2C2CCN(C)C2)c(=O)[nH]1 (racemic)

1: 1 to 100 nM; 2: 1 to 100 nM; 3: 1 to 100 nM; 4: 1 to 100 nM; 5: 101 to 1200 nM; 6: 101 to 1200 nM
